# TARGET_OF_ASSAY: MAP kinase-activated protein kinase 2 (Homo sapiens, UniProt P49137)
# Sequence (P49137 whole entry): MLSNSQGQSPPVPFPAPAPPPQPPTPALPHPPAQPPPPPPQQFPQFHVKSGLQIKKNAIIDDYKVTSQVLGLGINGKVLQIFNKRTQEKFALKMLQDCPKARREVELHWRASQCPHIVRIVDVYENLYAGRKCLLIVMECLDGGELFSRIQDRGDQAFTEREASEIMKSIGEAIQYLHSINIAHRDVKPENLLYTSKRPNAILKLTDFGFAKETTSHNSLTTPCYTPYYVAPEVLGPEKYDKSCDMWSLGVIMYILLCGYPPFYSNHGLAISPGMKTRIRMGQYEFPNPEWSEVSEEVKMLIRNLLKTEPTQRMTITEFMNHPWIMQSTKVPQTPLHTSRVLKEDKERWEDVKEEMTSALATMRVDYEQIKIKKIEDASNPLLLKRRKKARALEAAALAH
# PROTOCOL: Inhibition of MK2 in human U937 cells assessed as blockade of LPS-stimulated TNFalpha production
# Assay type: cell-based, U-937
Please respond with reported IC50 for every item in the list.
Respond numerically; units are µM and should not be typed.

Form field: reported IC50 of COc1ccc2sc3c(c2c1)CCCNC3=O
4.7

Item: COc1ccc2sc3c(c2c1)NC[C@@H](CNCc1ccccc1)NC3=O
21

Quick one: C[C@@H]1CNc2c(sc3ccc(OCC4CC4)cc23)C(=O)N1
27

Check COc1ccc2sc3c(c2c1)NCCNC3=O too.
1.4
